target: FPR2 (Homo sapiens); assay: FPR2 activation, intracellular calcium (Fura-2/AM) in RBL cells overexpressing FPR2; details: calcium ion increase in FPR2-overexpressing RBL cells
Sequence (P25090 whole entry, species assumed): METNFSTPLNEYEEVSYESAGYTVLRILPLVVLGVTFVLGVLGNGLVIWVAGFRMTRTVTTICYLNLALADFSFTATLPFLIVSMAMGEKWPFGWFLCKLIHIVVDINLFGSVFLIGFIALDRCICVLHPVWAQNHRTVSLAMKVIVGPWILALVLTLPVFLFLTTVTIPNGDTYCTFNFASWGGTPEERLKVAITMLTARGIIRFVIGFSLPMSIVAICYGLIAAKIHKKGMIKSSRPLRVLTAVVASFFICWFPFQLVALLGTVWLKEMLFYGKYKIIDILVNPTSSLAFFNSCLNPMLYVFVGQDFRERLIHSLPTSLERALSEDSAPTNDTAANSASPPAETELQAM
Non-standard residues stand in square brackets, D forms with d. Residues, ends and D or L forms follow the SMILES beside them. *: point of attachment. Octanoyl = CCCCCCCC(=O)*
Below: a set of entries, each annotated with reported EC50.
Write the number in nM without appending the unit.

See these solved cases before continuing.
[[record]]
molecule = "CSCC[C@@H](NC(=O)[C@H](Cc1ccc(O)cc1)NC(=O)[C@H](CCCNC(=N)N)NC(=O)[C@H](Cc1c[nH]c2ccccc12)NC(=O)[C@H](CCCCN)NC(=O)[C@H](Cc1ccccc1)NC(=O)[C@@H](N)CCCCN)C(N)=O [compound 3] (H-KFKWRY[dM]-NH2)"
reported_value = 65.4

[[record]]
molecule = "CSCC[C@@H](NC(=O)[C@H](Cc1ccc(O)cc1)NC(=O)[C@H](CCCNC(=N)N)NC(=O)[C@H](Cc1c[nH]c2ccccc12)NC(=O)[C@H](CCCNC(=N)N)NC(=O)[C@H](Cc1c[nH]c2ccccc12)NC(=O)[C@@H](N)CCCNC(=N)N)C(N)=O [compound 6] (H-RWRWRY[dM]-NH2)"
reported_value = 30.3

[[record]]
molecule = "CCCCCCCC(=O)N[C@@H](CCCNC(=N)N)C(=O)N[C@@H](Cc1c[nH]c2ccccc12)C(=O)N[C@@H](CCCNC(=N)N)C(=O)N[C@@H](Cc1c[nH]c2ccccc12)C(=O)N[C@@H](CCCNC(=N)N)C(=O)N[C@@H](Cc1ccc(O)cc1)C(=O)N[C@H](CCSC)C(N)=O [compound 5] (Octanoyl-RWRWRY[dM]-NH2)"
reported_value = 90.7

[[record]]
molecule = "CCCCCCCC(=O)N[C@@H](CCCCN)C(=O)N[C@@H](Cc1c[nH]c2ccccc12)C(=O)N[C@@H](CCCCN)C(=O)N[C@@H](Cc1c[nH]c2ccccc12)C(=O)N[C@@H](CCCNC(=N)N)C(=O)N[C@@H](Cc1ccc(O)cc1)C(=O)N[C@H](CCSC)C(N)=O [compound 4] (Octanoyl-KWKWRY[dM]-NH2)"
reported_value = 108


Now look at this entry.
EC50 of CCCCCCCC(=O)N[C@@H](CCCCN)C(=O)N[C@@H](Cc1ccccc1)C(=O)N[C@@H](CCCCN)C(=O)N[C@@H](Cc1c[nH]c2ccccc12)C(=O)N[C@@H](CCCNC(=N)N)C(=O)N[C@@H](Cc1ccc(O)cc1)C(=O)N[C@H](CCSC)C(N)=O [compound 2] (Octanoyl-KFKWRY[dM]-NH2) on FPR2 (Homo sapiens)?
92.9
